Origin of the recorded values: patent US10517889B2

- Test system: human SMAD7 mRNA
- ASSAY SUMMARY: Dose-dependent inhibition of human SMAD7 mRNA expression in Hep3B cells (Example 3, Study 1 and 2)
- Assay type: cell-based
- EXPERIMENTAL PARAMETERS: 20000.0 nM, electroporation, approximately 16 hours, Study 2
Strand notation (5' to 3'): a small letter for the sugar, then the base; units joined by * are phosphorothioate-linked, units joined directly phosphodiester-linked; [ ] holds rarer units or linkages, { } end groups; capitals alone tell only the bases. k = constrained ethyl (cEt); [5mC] = 5-methylcytosine; d = 2'-deoxy (DNA)
Readings of % inhibition of SMAD7 mRNA expression for the listed substances
Kindly format the answer as number then unit.

These recorded examples may help you get a feel for the data.
> print(dat)
                                  substance  reported
1  799067 (antisense kG*kG*kA*dT*dG*dA*dA*dA*dA*dT*dA*dA*dT*kT*kG*kG) [compound 799067]       78%
2  829767 (antisense kG*kG*kA*dG*dG*d[5mC]*dA*d[5mC]*dG*d[5mC]*dG*dG*dT*kG*k[5mC]*kG) [compound 829767]       49%
3  799596 (kA*k[5mC]*kT*d[5mC]*dT*dG*dA*dA*d[5mC]*dG*dG*dA*dA*kA*kG*kA; antisense) [compound 799596]       83%
4  799858 (kG*kT*kA*dA*dT*dT*dT*dA*dG*d[5mC]*dA*dA*dT*kT*k[5mC]*k[5mC]; antisense) [compound 799858]       71%
5  772553 (antisense kT*k[5mC]*kT*dT*dG*dA*dG*d[5mC]*dA*d[5mC]*d[5mC]*dG*dA*kG*kT*kG) [compound 772553]       89%

Request: Look at this substance and give its reported % inhibition of SMAD7 mRNA expression. 799673 (antisense k[5mC]*kT*kG*dA*dT*dT*dA*dA*d[5mC]*dT*dT*dT*d[5mC]*k[5mC]*kT*kT) [compound 799673]
Response: 86%

Request: Fill blank: measured % inhibition of SMAD7 mRNA expression of the substance 799712 (antisense kA*kT*kA*dG*dA*dT*dT*dA*dT*d[5mC]*d[5mC]*dA*dA*kG*kT*kA) [compound 799712] is ____.
Response: 63%
